assay: Cesium distribution ratio (DCs), equilibrium batch contact of mixed extractant solvent with nitric acid feed; assay type: physicochemical; settings: first forward extraction, 1.5 M HNO3 feed simulant, 25 °C; 0.007 M calixarene, 0.075 M DtBuCH18C6, 0.75 M Cs-7SB, 0.003 M TOA in ISOPAR L
value.type: Cesium distribution ratio, contact E1
Provide a numeric answer; units are not to be included.

- molecule: "CCCCC(CCCC)CCCOc1c2cccc1Cc1cccc3c1OCCOCCOc1ccccc1OCCOCCOc1c(cccc1Cc1cccc(c1OCCCC(CCCC)CCCC)C3)C2 [MC-12B]"
  result: 2.5
- molecule: "CCCCCCCCCCCCOc1c2cccc1Cc1cccc3c1OCCOCCOc1ccccc1OCCOCCOc1c(cccc1Cc1cccc(c1OCCCCCCCCCCCC)C3)C2"
  result: 2.9

Pending molecule:
# get_value(readout='Cesium distribution ratio, contact E1', item= CC(C)CCCC(C)CCOc1c2cccc1Cc1cccc3c1OCCOCCOc1ccccc1OCCOCCOc1c(cccc1Cc1cccc(c1OCCC(C)CCCC(C)C)C3)C2 (stereo not drawn) [MC-10B] )
3.7

Data provenance: patent US8158088B2
